Biological target: GLP-1 receptor (GLP-1R) (human, UniProt P43220 24-463)
Experiment: cell-based or functional assay
Non-standard residues stand in square brackets, D forms with d. Groups on a side chain read outwards from the residue. Primed or numbered codes have the meaning given here. No end group written: not given here. *: point of attachment. Dodecylbenzoate = dodecylbenzoyl lipid group; Stearoyl = CCCCCCCCCCCCCCCCCC(=O)*; αMeF = C[C@](N)(Cc1ccccc1)C(=O)O; αMeK = C[C@](N)(CCCCN)C(=O)O; Lauroyl = CCCCCCCCCCCC(=O)*; αMeS = C[C@](N)(CO)C(=O)O; PEG2′ = not defined here; Aib = CC(C)(N)C(=O)O; Ahx = NCCCCCC(=O)O
Value type: Primary assay EC50 (cAMP), Mean pM GLP-1R (pM)

Example entries and their recorded answers appear below.
binder="H[Aib]EGS[αMeF]TSDV[αMeS]S[αMeF]LEGEAA[αMeK]E[αMeF]IA[αMeF]VVK([Ahx-Dodecylbenzoate])GG-NH2 [SEQ ID NO 176]" observed_value=16
binder="H[Aib]EGS[αMeF]TSDV[αMeS]S[αMeF]LEGEAA[αMeK]E[αMeF]IA[αMeF]VVK([PEG2′-Stearoyl])GG-NH2 [SEQ ID NO 197]" observed_value=79
binder="H[Aib]EGS[αMeF]TSDV[αMeS]S[αMeF]LEGEAAK([PEG2′-PEG2′-PEG2′-Stearoyl])E[αMeF]IA[αMeF]VV[αMeK]GG-NH2 [SEQ ID NO 163]" observed_value=56
binder="H[Aib]EGS[αMeF]TSDV[αMeS]S[αMeF]LEGEAAK([PEG2′-Stearoyl])E[αMeF]IA[αMeF]VV[αMeK]GG-NH2 [SEQ ID NO 161]" observed_value=112
binder="H[Aib]EGS[αMeF]TSDV[αMeS]S[αMeF]LEGEAA[αMeK]E[αMeF]IA[αMeF]VVK([PEG2′-PEG2′-PEG2′-Lauroyl])GG-NH2 [SEQ ID NO 172]" observed_value=1.1

I: H[Aib]EGS[αMeF]TSDV[αMeS]S[αMeF]LEGEAA[αMeK]E[αMeF]IA[αMeF]VVK([PEG2′-PEG2′-PEG2′-Dodecylbenzoate])GG-NH2 [SEQ ID NO 181]
II: H[Aib]EGS[αMeF]TSDV[αMeS]S[αMeF]LEGEAA[αMeK]E[αMeF]IA[αMeF]VVK([PEG2′-Lauroyl])GG-NH2 [SEQ ID NO 170]
// query Returns: the argument ( I or II ) having the larger Primary assay EC50 (cAMP), Mean pM GLP-1R. Answer = label.
// result II

1: H[Aib]EGS[αMeF]TSDV[αMeS]S[αMeF]LEGEAA[αMeK]E[αMeF]IA[αMeF]VVK([PEG2′-Dodecylbenzoate])GG-NH2 [SEQ ID NO 179]
2: H[Aib]EGS[αMeF]TSDV[αMeS]S[αMeF]LEGEAA[αMeK]E[αMeF]IA[αMeF]VVK([Ahx-Ahx-Dodecylbenzoate])GG-NH2 [SEQ ID NO 177]
// query Returns: the argument ( 1 or 2 ) having the larger Primary assay EC50 (cAMP), Mean pM GLP-1R. Answer = label.
// result 1
